System: A549/ATCC NSCLC
Test: NCI-60 one-dose screen, 48 h
Conditions: 10 µM unless noted
About 83,000 compounds went through this panel and 20% of them were active in at least one assay; those are over-represented in the sample as a whole. Activity calls are given as the source filed them. The calls were made as follows: active = growth percent below 10; inactive = the rest.
# output must be one of 1 (active), 0 (inactive)

Take a look at these entries with their results.
COC(=O)[C@H](Cc1cn(C)cn1)NC(=O)[C@H](Cc1c[nH]c2ccccc12)NC(=O)Nc1cc(C(F)(F)F)cc(C(F)(F)F)c1 = 1
CCCCCCC(C)N(CC(C)(C)O)C(=O)c1ccc([N+](=O)[O-])cc1 (stereo not drawn) = 0

Lab note: next compound to report on.
Exercise: Recorded test call requested for COC(=O)[C@@H]1[C@H](O)[C@H](C)[C@H](O)[C@H](C)/C=C\C=C(C)C(=O)Nc2c(C)c(OC(C)=O)c3c(c2O)C(=O)C(C)=C2OCOC(=C23)C(C)=C[C@@](C)(O)[C@H](O)[C@@H](C)[C@H]1OC(C)=O
Solution: 0

###

Hi there, I'd appreciate the recorded growth for every entry that follows.
Tested on: RPMI-8226 leukemia
Assay: NCI-60 one-dose screen, 48 h (100 = growth as untreated, 0 = no growth, -100 = all killed)
Settings: 10 µM unless noted
About 83,000 compounds went through this panel and 20% of them were active in at least one assay; those are over-represented in the sample as a whole.
Give bare numbers, in %.

Worked examples follow.
COC(=O)c1c[n+]([O-])ccc1OC = 111
O=c1c2c(c3ccccc3n1-c1ccccc1)NC(=S)NC2c1ccccc1 (stereo not drawn) = 50.1
COC(=O)/C(Br)=C/c1c[nH]c2ccc(Br)cc12 = 53.9
COC1NC(Cl)=C(C#N)C(C#N)(C#N)C1(C)C (stereo not drawn) = 127
CC(=O)N1N=C(c2ccc(Cl)cc2)CC1c1cn(-c2ccccc2)nc1-c1ccc([N+](=O)[O-])cc1 (stereo not drawn) = 101

Okay, here is my list. What is growth for each of these?
1. COc1ccc(-c2nc(SCC(C)C)nc(Nc3ccc(C)cc3)c2C#N)cc1
2. O=P(OCCCl)(OCCCl)C(O)c1ccccc1Cl (stereo not drawn)
3. CC(C)OC(=O)Nn1cnc2ccccc21

Solution:
1. 73.2
2. 110
3. 98.6

###

Please go through the items and note down their growth.
System: OVCAR-4 ovarian
Experiment: NCI-60 one-dose screen, 48 h (100 = growth as untreated, 0 = no growth, -100 = all killed)
Details: 10 µM unless noted
This is part of a sample that, as a whole, favours compounds with a hit. Of some 83,000 tested, about 20% had one in any assay.
Numbers only, in %.

Use these answered entries as a reference point.
COc1ccc(-c2nc(Nc3nc4ccccc4[nH]3)nc(N)c2C#N)cc1 = 102
CC1(C)C(O)NC(Cl)=C(C#N)C1(C#N)C#N (stereo not drawn) = 107

Then this compound:
Exercise: Dear colleague, I am looking for the recorded growth of the following compound: COc1ccc(Cn2cc3c(c2-c2ccccc2)CCc2cnoc2-3)cc1OC
Solution: 41.5

###

Test system: A498 renal
Test: NCI-60 one-dose screen, 48 h
Conditions: 10 µM unless noted
About 83,000 compounds went through this panel and 20% of them were active in at least one assay; those are over-represented in the sample as a whole. Calls of active or inactive are those of the source. How the source made its calls: active means growth percent below 10; inactive means the rest.
Result category, one only: active, inactive

Example results:
CC(=O)OC1/C=C\CC/C=C\C1 (centres undefined) = inactive
COc1cc2cn3c4ccc(O)cc4[nH]c(=O)c3c2cc1OC = active

Exercise: Each molecule tested received a call. Report the one for O=C(/C=C/c1c[nH]c2ccccc12)c1cc2ccccc2o1 .
Solution: inactive

Exercise: Could you check what this test reported for CCCCCCCCCCCCCCCCNC(=S)N/N=C/c1ccc(OC)cc1 ?
Solution: inactive

Exercise: Hi, sorry to bother you, what did the test record for N#CCc1ncc(-c2ccc(C(F)(F)F)cc2)c(NC2CCCCCC2)n1 ?
Solution: active

Exercise: In this assay, the call recorded for COc1cc(-c2nc3c(c(C)nc4c3nnn4-c3ccccc3)c(=O)o2)cc(OC)c1OC was what?
Solution: inactive

Exercise: Tell me the assay call for O=C(CBr)OCc1ccc([N+](=O)[O-])o1 please.
Solution: inactive

Exercise: Would you mind telling me which call this test gave CCN(CC)CCNc1ncnc2c1cnn2-c1ccc(Cl)cc1 ?
Solution: inactive

Exercise: Short answer needed: outcome of this test for O=C1Nc2ccccc2/C1=C/c1cn(CC(O)Cn2cc(/C=C3\C(=O)Nc4ccccc43)c3ccccc32)c2ccccc12 (centres undefined) ?
Solution: active

Exercise: Look up the recorded call for Oc1ccc(CN(Cc2ccc(C(F)(F)F)cc2)Cc2ccc(O)c3ncccc23)c2cccnc12 in this test.
Solution: inactive

Exercise: Write down the call the test reported for this molecule. Item: Cc1nnc(-c2cc3c(ccc4ccccc43)oc2=O)c2cn(-c3ccc(Cl)cc3)nc12
Solution: inactive

Exercise: I'd appreciate the recorded outcome for O=C(N/N=C\c1ccc(-c2ccc(Br)cc2)o1)c1cc2oc(-c3cccc(C(F)(F)F)c3)cc2[nH]1 from this test.
Solution: inactive

Exercise: What did the test return for COC(=O)c1ccc2[nH]c(O)c(C(=Nc3ccc(N(C)C(=O)CN4CCN(C)CC4)cc3)c3ccc(OC)cc3)c2c1 ?
Solution: active

Exercise: Per the assay record, what outcome was assigned to COc1cc(OC)cc(-c2ccc(-c3ccc(C(=N)N)cc3)s2)c1 ?
Solution: active
